Molecular target: human Cereblon WT GST-tagged protein (Homo sapiens)
Construct: purchased CISBIO 64BDCRBNPEH
Sequence (Q96SW2 whole entry): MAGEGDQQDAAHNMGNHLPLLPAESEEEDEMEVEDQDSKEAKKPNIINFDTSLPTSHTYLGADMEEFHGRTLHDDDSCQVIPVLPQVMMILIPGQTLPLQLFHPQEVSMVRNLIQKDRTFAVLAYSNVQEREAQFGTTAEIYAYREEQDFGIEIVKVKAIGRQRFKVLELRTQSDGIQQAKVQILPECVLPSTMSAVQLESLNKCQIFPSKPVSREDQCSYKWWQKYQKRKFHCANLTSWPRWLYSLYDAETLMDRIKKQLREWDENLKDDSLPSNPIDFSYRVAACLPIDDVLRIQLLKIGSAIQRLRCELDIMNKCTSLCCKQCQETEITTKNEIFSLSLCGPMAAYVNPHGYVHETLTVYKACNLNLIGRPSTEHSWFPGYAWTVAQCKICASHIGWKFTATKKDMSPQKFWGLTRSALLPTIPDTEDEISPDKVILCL
Experiment: CRBN binding, HTRF (CEREBLON BINDING kit)
Settings: Table II-2, CRBN binding screening, HTRF; at 0.5µM; read-out: Inhibition rate (%) at 0.5µM
Reported inhibition at 0.5 µM by item:
property label: inhibition at 0.5 µM

1) COc1cc2nn(C3CCN(Cc4cc(N5CCC(=O)NC5=O)cnc4F)CC3)cc2cc1NC(=O)c1cccc(C(F)(F)F)n1; 20 to 30%
2) O=C1CCN(c2cncc(CN3CCC(n4cc(NC(=O)c5cnn6ccc(N7CCOCC7)nc56)c(C(F)F)n4)CC3)c2)C(=O)N1; 30 to 40%
3) CNC(=O)c1ccccc1Nc1cc(Nc2ccc(N3CCN(Cc4ccc(C5CCC(=O)NC5=O)cc4)CC3)cc2OC)ncc1C(F)(F)F (stereo not shown); 10 to 20%
4) O=C1CCN(c2cnc(F)c(CN3C[C@H]4C[C@@H]3CN4c3ccc(-c4cc(F)c5c(c4)C(=O)N(C(C(=O)Nc4nccs4)c4ncn6c4CCC6)C5)cc3)c2)C(=O)N1 (stereo partly shown); 60 to 80%
5) O=C1CCN(c2cnc(F)c(CN3CCC(n4cc(NC(=O)c5cnn6ccc(N7C[C@H]8C[C@@H]7CO8)nc56)c(C(F)F)n4)CC3)c2)C(=O)N1; 30 to 40%
6) CN(C)C(=O)c1cc2cnc(Nc3ccc(N4CCN(Cc5cncc(C6CCC(=O)NC6=O)c5)CC4)cn3)nc2n1C1CCCC1 (stereo not shown); 53 to 60%
7) O=C1CCC(c2cc(CN3CCC(n4cc(NC(=O)c5cnn6ccc(N7C[C@H]8C[C@@H]7CO8)nc56)c(C(F)F)n4)CC3)ccn2)C(=O)N1 (stereo partly shown); 20 to 30%
8) O=C1CCC(c2cncc(CN3CCC(n4cc(NC(=O)c5cnn6ccc(N7CCOCC7)nc56)c(C(F)F)n4)CC3)c2)C(=O)N1 (stereo not shown); 30 to 40%
9) C[C@@H]1CNC(=O)c2cc3ccc(C(=O)Nc4cnn(Cc5ccc(N6CCN(Cc7ccc(C8CCC(=O)NC8=O)cc7)CC6)cc5)c4)nc3n21 (stereo partly shown); 60 to 80%
10) O=C1CCC(c2ccc(CN3CCC(n4cc(NC(=O)c5cnn6ccc(N7CCOCC7)nc56)c(C(F)F)n4)CC3)nc2)C(=O)N1 (stereo not shown); 40 to 53%
11) CC(C)Nc1cc(-n2ccc3cc(C#N)cnc32)ncc1C(=O)NC1CCN(Cc2cc(N3CCC(=O)NC3=O)cnc2F)CC1; 20 to 30%
12) CCc1cc2c(cc1N1CCC(N3CCN(Cc4ccc(C5CCC(=O)NC5=O)cc4)CC3)CC1)C(C)(C)c1[nH]c3cc(C#N)ccc3c1C2=O (stereo not shown); 40 to 53%
13) C[C@@H]1CNC(=O)c2cc3ccc(C(=O)Nc4cnn(Cc5ccc(N6CCC(N7CCN(Cc8cc(N9CCC(=O)NC9=O)cnc8F)CC7)CC6)cc5)c4)nc3n21; 20 to 30%

###

Test system: H1975
Assay: CCK-8 proliferation, NCI-H1975 (H1975)
Type: cell-based, Human
Details: Homo sapiens, NCI-H1975; CCK-8; 96 hours; read-out: Inhibitory activity (IC50) on tumor cell proliferation, H1975
property label: IC50

1) O=C1CCN(c2ccc(CN3CCC(N4CCN(c5ccc(-c6cc(F)c7c(c6)C(=O)N(C(C(=O)Nc6nccs6)c6ncn8c6CCC8)C7)cc5)CC4)CC3)cn2)C(=O)N1 (centres unmarked); 1 to 10 nM
2) C=CC(=O)N1CCC(c2ccc(C(N)=O)c(-c3ccc(Oc4ccccc4)cc3)n2)CC1 [Orelabrutinib, reference compound]; > 10000 nM
3) Cc1nc2c(F)cc(-c3nc(Nc4ccc(N5CCC(N6CCN(Cc7ccc(C8CCC(=O)NC8=O)c(F)c7)CC6)CC5)cn4)ncc3F)cc2n1C(C)C (centres unmarked); 100 to 500 nM
4) Cc1nc2c(F)cc(-c3nc(Nc4ccc(N5CCC(N(C)Cc6ccc(C7CCC(=O)NC7=O)cc6)CC5)cn4)ncc3F)cc2n1C(C)C (centres unmarked); 100 to 500 nM
5) O=C1CCC(c2cncc(CN3CCN(c4ccc(-c5cc(F)c6c(c5)C(=O)N(C(C(=O)Nc5nccs5)c5ncn7c5CCC7)C6)cc4)CC3)c2)C(=O)N1 (centres unmarked); 1 to 10 nM
6) Cc1nc2c(F)cc(-c3nc(Nc4ccc(N5CCC(N(C)Cc6ccc(N7CCC(=O)NC7=O)nc6)CC5)cn4)ncc3F)cc2n1C(C)C; 100 to 500 nM
7) CC(=O)c1c(C)c2cnc(Nc3ccc(N4CCNCC4)cn3)nc2n(C2CCCC2)c1=O [Palbociclib, reference compound]; 5000 to 10000 nM
8) O=C1CCN(c2cc(CN3CCN(c4ccc(-c5cc(F)c6c(c5)C(=O)N(C(C(=O)Nc5nccs5)c5ncn7c5CCC7)C6)cc4)CC3)ccn2)C(=O)N1 (centres unmarked); 1 to 10 nM
9) O=C1CCC(c2ccc(CN3C[C@@H]4C[C@H]3CN4c3ccc(-c4cc(F)c5c(c4)C(=O)N(C(C(=O)Nc4nccs4)c4ncn6c4CCC6)C5)cc3)cc2)C(=O)N1 (some centres unmarked); 10 to 50 nM
10) CN(Cc1cccc(N2CCC(=O)NC2=O)c1)C1CCN(c2ccc(Nc3ncc4nc(Nc5ccccc5)n(C5CCCC5)c4n3)cc2)CC1; 100 to 500 nM
11) CN(Cc1cncc(C2CCC(=O)NC2=O)c1)C1CCN(c2ccc(-c3cc(F)c4c(c3)C(=O)N(C(C(=O)Nc3nccs3)c3ncn5c3CCC5)C4)cc2)CC1 (centres unmarked); 1 to 10 nM
12) CN(Cc1cc(N2CCC(=O)NC2=O)ncc1F)C1CCN(c2ccc(-c3cc(F)c4c(c3)C(=O)N(C(C(=O)Nc3nccs3)c3ncn5c3CCC5)C4)cc2)CC1 (centres unmarked); 10 to 50 nM
13) O=C1CCN(c2ccc(CN3CCN(C4CCN(c5ccc(-c6cc(F)c7c(c6)C(=O)N(C(C(=O)Nc6nccs6)c6ncn8c6CCC8)C7)cc5)CC4(F)F)CC3)cn2)C(=O)N1 (centres unmarked); 1 to 10 nM
14) O=C1CCC(c2ccc(CN3CCN(C4CCN(c5ccc(-c6cc(F)c7c(c6)C(=O)N(C(C(=O)Nc6nccs6)c6ncn8c6CCC8)C7)cc5)CC4)CC3)cc2)C(=O)N1 (centres unmarked); 1 to 10 nM
15) NC(=O)c1ncc(N2CCCCC2)nc1Nc1ccc(C2CCN(Cc3ccc(N4CCC(=O)NC4=O)c(F)c3)CC2)cc1; 500 to 1000 nM
16) O=C1CCN(c2cncc(CN3CCN(c4ccc(-c5cc(F)c6c(c5)C(=O)N(C(C(=O)Nc5nccs5)c5ncn7c5CCC7)C6)cc4)CC3)c2)C(=O)N1 (centres unmarked); 1 to 10 nM
17) O=C1CCN(c2ccc(CN3CCN(C4CCN(c5ccc(-c6cc(F)c7c(c6)C(=O)N(C(C(=O)Nc6nccs6)c6ncn8c6CCC8)C7)cc5)CC4(F)F)CC3)cc2)C(=O)N1 (centres unmarked); 10 to 50 nM
18) O=C1CCC(c2ccc(CN3CCN(C4CCN(c5ccc(Nc6ncc7nc(Nc8ccccc8)n(C8CCCC8)c7n6)cc5)CC4)CC3)cc2)C(=O)N1 (centres unmarked); 50 to 100 nM
19) NC(=O)c1ncc(N2CCCCC2)nc1Nc1ccc(C2CCN(Cc3ccc(C4CCC(=O)NC4=O)c(F)c3)CC2)cc1 (centres unmarked); 500 to 1000 nM
20) NC(=O)c1ncc(N2CCCCC2)nc1Nc1ccc(C2CCN(Cc3cccc(N4CCC(=O)NC4=O)c3)CC2)cc1; 500 to 1000 nM
21) O=C1CCN(c2cccc(CN3CCC(N4CCN(c5ccc(-c6cc(F)c7c(c6)C(=O)N(C(C(=O)Nc6nccs6)c6ncn8c6CCC8)C7)cc5)CC4)CC3)c2)C(=O)N1 (centres unmarked); 1 to 10 nM
22) O=C1CCN(c2cccc(CN3C[C@@H]4C[C@H]3CN4c3ccc(-c4cc(F)c5c(c4)C(=O)N(C(C(=O)Nc4nccs4)c4ncn6c4CCC6)C5)cc3)c2)C(=O)N1 (some centres unmarked); 10 to 50 nM
23) CN(Cc1cccnc1NC1CCC(=O)NC1=O)C1CCN(c2ccc(-c3cc(F)c4c(c3)C(=O)N(C(C(=O)Nc3nccs3)c3ncn5c3CCC5)C4)cc2)CC1 (centres unmarked); 1 to 10 nM
